Molecular target: Kv1.3 (Homo sapiens)
Construct: host or cells: HEK293 or CHO
Sequence (P22001 whole entry): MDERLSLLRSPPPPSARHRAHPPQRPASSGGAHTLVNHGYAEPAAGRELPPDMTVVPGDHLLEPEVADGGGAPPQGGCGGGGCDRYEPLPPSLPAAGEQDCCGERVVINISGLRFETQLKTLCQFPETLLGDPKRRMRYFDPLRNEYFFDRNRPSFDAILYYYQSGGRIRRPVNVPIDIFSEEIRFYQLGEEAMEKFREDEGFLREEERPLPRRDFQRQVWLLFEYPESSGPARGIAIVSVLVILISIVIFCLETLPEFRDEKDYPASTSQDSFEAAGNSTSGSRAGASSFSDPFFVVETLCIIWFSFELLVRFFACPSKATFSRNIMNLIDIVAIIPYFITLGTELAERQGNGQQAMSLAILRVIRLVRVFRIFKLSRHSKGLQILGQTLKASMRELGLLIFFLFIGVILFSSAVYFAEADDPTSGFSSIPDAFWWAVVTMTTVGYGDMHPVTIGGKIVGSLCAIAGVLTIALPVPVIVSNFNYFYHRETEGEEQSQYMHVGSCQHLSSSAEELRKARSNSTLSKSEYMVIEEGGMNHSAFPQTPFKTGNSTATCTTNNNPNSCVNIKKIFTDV
Assay: cell-based
Type: cell-based
Details: peptide at 0.2 μM; 100% = no change, <100% = inhibition
Provide the reported Activity of Kv1.3 with peptide, expressed as a percentage of the reference compound of each item.
Give bare numbers, in %.

Examples from the recorded data:
>  <SUBSTANCE>
20 (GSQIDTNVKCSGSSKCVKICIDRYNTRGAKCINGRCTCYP) [compound 20]

>  <SYSTEM_TESTED>
Kv1.3 (Homo sapiens)

>  <MEASURED_NUMBER>
80

$$$$
>  <SUBSTANCE>
24 (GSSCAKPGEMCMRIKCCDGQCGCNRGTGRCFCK) [compound 24]

>  <SYSTEM_TESTED>
Kv1.3 (Homo sapiens)

>  <MEASURED_NUMBER>
94

$$$$
>  <SUBSTANCE>
27 (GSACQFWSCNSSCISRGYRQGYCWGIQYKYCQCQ) [compound 27]

>  <SYSTEM_TESTED>
Kv1.3 (Homo sapiens)

>  <MEASURED_NUMBER>
106

$$$$
>  <SUBSTANCE>
4 (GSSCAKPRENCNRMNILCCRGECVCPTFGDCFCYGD) [compound 4]

>  <SYSTEM_TESTED>
Kv1.3 (Homo sapiens)

>  <MEASURED_NUMBER>
109

$$$$
>  <SUBSTANCE>
5 (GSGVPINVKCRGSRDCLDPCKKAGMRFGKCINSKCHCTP) [compound 5]

>  <SYSTEM_TESTED>
Kv1.3 (Homo sapiens)

>  <MEASURED_NUMBER>
98

$$$$
>  <SUBSTANCE>
36 (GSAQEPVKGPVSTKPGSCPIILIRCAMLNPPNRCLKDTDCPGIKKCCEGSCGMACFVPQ) [compound 36]

>  <SYSTEM_TESTED>
Kv1.3 (Homo sapiens)

>  <MEASURED_NUMBER>
96

$$$$
>  <SUBSTANCE>
15 (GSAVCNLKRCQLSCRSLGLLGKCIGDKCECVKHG) [compound 15]

>  <SYSTEM_TESTED>
Kv1.3 (Homo sapiens)

>  <MEASURED_NUMBER>
86

$$$$
>  <SUBSTANCE>
26 (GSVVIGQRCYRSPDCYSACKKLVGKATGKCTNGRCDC) [compound 26]

>  <SYSTEM_TESTED>
Kv1.3 (Homo sapiens)

>  <MEASURED_NUMBER>
94

$$$$

So what does the record say about Activity of Kv1.3 with peptide, expressed as a percentage of the reference compound for 2 (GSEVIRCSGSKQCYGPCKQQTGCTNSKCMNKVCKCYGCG) [compound 2] ?
8
